The entries below are paired with their reported MIC.
Tested on: Staphylococcus aureus
method-description: Minimum inhibition concentration against Staphylococcus aureus FDA209P strain
Type: functional
Reply with just the number (in µg/mL).

Example compounds with recorded MIC:
compound	MIC [µg/mL]
CNCC1CN(c2c(F)cc3c(=O)c(C(=O)O)cn(C4CC4)c3c2F)CCO1 (stereo not drawn)	0.025
NCC1CN(c2c(F)cc3c(=O)c(C(=O)O)cn(C4CC4)c3c2F)CCCO1 (stereo not drawn)	0.78
NCC1CN(c2c(F)cc3c(=O)c(C(=O)O)cn(C4CC4)c3c2F)CCO1 (stereo not drawn)	0.025
NCCC1CN(c2c(F)cc3c(=O)c(C(=O)O)cn(C4CC4)c3c2F)CCO1 (stereo not drawn)	0.2
NCC1CN(c2c(F)cc3c(=O)c(C(=O)O)cn(C4CC4)c3c2Cl)CCO1 (stereo not drawn)	0.012
CN(Cc1ccccc1)CC1CN(c2c(F)cc3c(=O)c(C(=O)O)cn(C4CC4)c3c2F)CCO1 (stereo not drawn)	0.39
CCn1cc(C(=O)O)c(=O)c2cc(F)c(N3CCOC(CN)C3)c(F)c21 (stereo not drawn)	0.2
NCC1CN(c2c(F)cc3c(=O)c(C(=O)O)cn(CCF)c3c2F)CCO1 (stereo not drawn)	0.78
O=C(O)c1cn(C2CC2)c2c(F)c(N3CCNCC3)c(F)cc2c1=O	0.1
NCC1CN(c2cc3c(cc2F)c(=O)c(C(=O)O)cn3C2CC2)CCO1 (stereo not drawn)	0.2

Q: # value lookup — system Staphylococcus aureus, readout MIC, item CC1COc2c(N3CCN(C)CC3)c(F)cc3c(=O)c(C(=O)O)cn1c23 (stereo not drawn)
Result: 0.2

Q: # value lookup — system Staphylococcus aureus, readout MIC, item CC(=O)NCC1CN(c2c(F)cc3c(=O)c(C(=O)O)cn(C4CC4)c3c2F)CCO1 (stereo not drawn)
Result: 0.2

Q: # value lookup — system Staphylococcus aureus, readout MIC, item CCNCC1CN(c2c(F)cc3c(=O)c(C(=O)O)cn(C4CC4)c3c2F)CCO1 (stereo not drawn)
Result: 0.1

====

Test system: Escherichia coli
method-description: Minimum inhibition concentration against Escherichia coli NIHJ JC-2 strain
Format: functional
The entries below are paired with their reported MIC.
Reply with just the number (in µg/mL).

Example compounds with recorded MIC:
compound	MIC / µg/mL
CCNCC1CN(c2c(F)cc3c(=O)c(C(=O)O)cn(C4CC4)c3c2F)CCO1 (configuration not stated)	0.1
O=C(O)c1cn(C2CC2)c2cc(N3CCOCC3)c(F)cc2c1=O	0.2
CCN(CC)CC1CN(c2c(F)cc3c(=O)c(C(=O)O)cn(C4CC4)c3c2F)CCO1 (configuration not stated)	0.39
CCn1cc(C(=O)O)c(=O)c2cc(F)c(N3CCOCC3)cc21	0.78

Q: Find the recorded MIC belonging to O=C(O)c1cn(C2CC2)c2c(F)c(N3CCNCC3)c(F)cc2c1=O and report it.
Result: 0.006

Q: Find the recorded MIC belonging to CC1COc2c(N3CCOC(CN)C3)c(F)cc3c(=O)c(C(=O)O)cn1c23 (configuration not stated) and report it.
Result: 3.13

Q: Find the recorded MIC belonging to CN(C)CC1CN(c2c(F)cc3c(=O)c(C(=O)O)cn(C4CC4)c3c2F)CCO1 (configuration not stated) and report it.
Result: 0.2

Q: Find the recorded MIC belonging to O=C(O)c1cn(C2CC2)c2c(F)c(N3CCOCC3)c(F)cc2c1=O and report it.
Result: 0.1
